B1: Androgen receptor, residues 557 to 632; numbered along this chain, P10275 (parent)
chain: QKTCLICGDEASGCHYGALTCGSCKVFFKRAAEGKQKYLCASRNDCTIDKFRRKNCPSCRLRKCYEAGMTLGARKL

variants of: B1; assay: abundance fitness (aPCA) (normalised: wild type 0, dead -1); higher = more abundant; growth selection in yeast, the domain comes from the species named; settings: Homo sapiens
QUANTITY_NAME: abundance fitness
Output spec: single numeric token, no unit.

Examples from the recorded data:
L39H = -0.033
Q1D = 0.071
H15P = -0.27

Could you share which abundance fitness value was measured for L19N ?
-0.065

Also G72Y , if possible.
-0.074

Also A18Y , if possible.
-0.776

Cited source: the Human Domainome abundance scans (Beltran et al. 2025)
